# measured-target: Cellular tumor antigen p53 (Homo sapiens) (UniProt P04637)
# Sequence (P04637 whole entry, looked up): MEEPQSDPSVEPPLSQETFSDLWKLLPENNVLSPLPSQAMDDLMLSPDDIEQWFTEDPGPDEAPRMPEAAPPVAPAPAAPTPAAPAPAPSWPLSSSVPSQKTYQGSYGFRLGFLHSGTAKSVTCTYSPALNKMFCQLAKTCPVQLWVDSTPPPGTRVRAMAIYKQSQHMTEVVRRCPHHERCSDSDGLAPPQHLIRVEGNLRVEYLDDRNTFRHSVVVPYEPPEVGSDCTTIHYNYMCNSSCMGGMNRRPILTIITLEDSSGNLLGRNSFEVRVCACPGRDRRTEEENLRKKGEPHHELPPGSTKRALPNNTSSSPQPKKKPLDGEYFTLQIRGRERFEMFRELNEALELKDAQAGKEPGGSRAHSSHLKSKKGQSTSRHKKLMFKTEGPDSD
# assay-notes: kinase inhibitors altering GFP-p53 stability in HPV16-positive cells, imaging, known kinase inhibitor set, EGFP/DsRed ratio (AID 1053116);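 also: cells exposed to compounds for 24 h at 37 °C before reading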
# condition-info: stronger effect = higher value; measured here: GFP-p53 positive objects count
Let's look at some molecules and their measured EGFP object count.
The answer should be written as a number, with no unit following it.

Example molecules with recorded EGFP object count:
**Query** Report EGFP object count from Cellular tumor antigen p53 (Homo sapiens) (UniProt P04637) testing of COc1ccc(-c2ccc3c(NC(=O)C4CC4)n[nH]c3n2)cc1
**Result** 6

**Query** Report EGFP object count from Cellular tumor antigen p53 (Homo sapiens) (UniProt P04637) testing of Cc1ccc(NC(=O)c2ccnc(N3CCCC3)c2)cc1-c1ccc(C(=O)NCC2CC2)cc1
**Result** 6

**Query** Report EGFP object count from Cellular tumor antigen p53 (Homo sapiens) (UniProt P04637) testing of CCn1c(-c2nonc2N)nc2c(C#CC(C)(C)O)ncc(OCC3CCNCC3)c21
**Result** 13

More entries:
**Query** Report EGFP object count from Cellular tumor antigen p53 (Homo sapiens) (UniProt P04637) testing of CN(C)C(=O)O[C@@H]1CN[C@@H](C#Cc2cc3ncnc(Nc4ccc(OCc5cccc(F)c5)c(Cl)c4)c3s2)C1
**Result** 4

**Query** Report EGFP object count from Cellular tumor antigen p53 (Homo sapiens) (UniProt P04637) testing of Cn1c(=O)c(Oc2ccc(F)cc2F)cc2cnc(NC(CO)CO)nc21
**Result** 2.5

**Query** Report EGFP object count from Cellular tumor antigen p53 (Homo sapiens) (UniProt P04637) testing of Nc1c(C(=O)c2cccc(-c3ccncc3)c2)cnn1-c1ccc(F)cc1
**Result** 2

**Query** Report EGFP object count from Cellular tumor antigen p53 (Homo sapiens) (UniProt P04637) testing of COc1cc2ncn(-c3cc(O[C@H](C)c4ccccc4Cl)c(C(N)=O)s3)c2cc1OC
**Result** 5.5

**Query** Report EGFP object count from Cellular tumor antigen p53 (Homo sapiens) (UniProt P04637) testing of COc1cccc(-n2ncc3c(N/N=C/c4ccc(C(=O)NCCN(C)C)cc4)ncnc32)c1
**Result** 7

* * *

Let's look at some compounds and their measured viability.
# assay-notes: ovarian cancer cell viability with rucaparib, profiling panel, oncology-focused library, rucaparib conditional (AID 1508598)
# condition-info: patient-derived ovarian cancer cells, CellTiter-Glo viability, 144 h; at 1.25 µM; OCI-P5x cells; without rucaparib; stronger effect = lower value
Numbers only here, please. The scale is %.

Example compounds with recorded viability:
**Query** Identify viability associated with the compound CCN(CC)C(=S)SSC(=S)N(CC)CC
**Result** 116

**Query** Identify viability associated with the compound O=C1CCC(N2C(=O)c3ccccc3C2=O)C(=O)N1 (stereo not drawn)
**Result** 117

**Query** Identify viability associated with the compound S=c1nc[nH]c2nc[nH]c12
**Result** 80.6

**Query** Identify viability associated with the compound Cc1ccc(-c2cc(C(F)(F)F)nn2-c2ccc(S(N)(=O)=O)cc2)cc1
**Result** 105

**Query** Identify viability associated with the compound CCCCCCNC(=O)n1cc(F)c(=O)[nH]c1=O
**Result** 104

**Query** Identify viability associated with the compound CN(CCOc1ccc(CC2SC(=O)NC2=O)cc1)c1ccccn1 (stereo not drawn)
**Result** 115

**Query** Identify viability associated with the compound CC(C)C(=O)Nc1ccc([N+](=O)[O-])c(C(F)(F)F)c1
**Result** 113

Now take the following compound into account.
**Query** Identify viability associated with the compound NC(=O)c1ccc(-c2nc(-c3ccc4c(c3)OCO4)c(-c3ccccn3)[nH]2)cc1
**Result** 92.1

* * *

# assay-notes: inhibition of endothelial tube formation, primary screen, imaging, VEGF stimulated, CD31 staining, tube area, NPC library (AID 1117340)
# condition-info: VEGF-stimulated ADSC/ECFC co-culture, at 10 µM
Activity calls are given as the source filed them.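 Rule for the calls: active = compound that reduces growth-factor-driven endothelial tube area in a mixed cell culture, no cutoff stated; inactive = the rest.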
Result category, one only: label 1 = active, label 0 = inactive

Examples from the recorded data:
**Query** Test call, this compound: CCOC(=O)c1ccc(OCCN2C[C@H](O)[C@@H](O)[C@H](O)[C@H]2CO)cc1
**Result** label 0

**Query** Test call, this compound: CC(C)(C)c1ccc2c(S(=O)(=O)O)c(C(C)(C)C)ccc2c1
**Result** label 0

**Query** Test call, this compound: CN=C(NC#N)NCCSCc1nc[nH]c1C
**Result** label 0

**Query** Test call, this compound: Nc1ccncc1N
**Result** label 0

**Query** Test call, this compound: CCC(C(=O)NC(=O)NC(C)=O)c1ccccc1 (configuration not stated)
**Result** label 0

**Query** Test call, this compound: CCCc1c2oc(C(=O)O)cc(=O)c2cc2c(=O)cc(C(=O)O)n(CC)c12
**Result** label 0

**Query** Test call, this compound: O=C1CC(c2ccc(Cl)cc2)CC(=O)N1
**Result** label 1

**Query** Test call, this compound: NC(=O)N1c2ccccc2CC(=O)c2ccccc21
**Result** label 0

Okay, next one:
**Query** Test call, this compound: CCCC(=O)O[C@]1(C(=O)CC)CC[C@H]2[C@@H]3CCC4=CC(=O)CC[C@]4(C)[C@H]3[C@@H](O)C[C@@]21C
**Result** label 0

* * *

# assay-notes: glucagon-like peptide 1 release enhancers, primary assay, NCI-H716 cell line, NPC library (AID 1117341); also: reference of the scale not given here
# condition-info: NCI-H716 cells, at 10 µM
Active and inactive are the calls of the source.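 Rule for the calls: active = compound raises GLP1 secretion from the human gut endocrine cells, with no numeric limit stated; inactive = the rest.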
Result category, one only: 1.0 = active, 0.0 = inactive

**Query** Test call, this molecule: Cc1ccc2c(Br)cc(Br)c(O)c2n1
**Result** 0.0

**Query** Test call, this molecule: c1ccc2sc(SN3CCOCC3)nc2c1
**Result** 0.0

**Query** Test call, this molecule: N=C(N)n1cccn1
**Result** 0.0

More entries:
**Query** Test call, this molecule: C/C(=C(/OCCOc1ccc(Cl)cc1)c1ccc(Cl)cc1Cl)n1ccnc1
**Result** 0.0

**Query** Test call, this molecule: O=P(O)(O)C(Sc1ccc(Cl)cc1)P(=O)(O)O
**Result** 0.0

**Query** Test call, this molecule: CCCCCCCCCCCCCC[N+](C)(C)C
**Result** 1.0

**Query** Test call, this molecule: CC(=O)Oc1ccc(C2(c3ccc(OC(C)=O)cc3)C(=O)Nc3ccccc32)cc1
**Result** 0.0

**Query** Test call, this molecule: CN1CCC[C@@H]1c1cccnc1
**Result** 0.0

**Query** Test call, this molecule: NC[C@@H]1O[C@H](O[C@H]2[C@H](O)[C@H](O[C@H]3[C@@H](O)[C@H](N)C[C@H](N)[C@H]3O[C@H]3O[C@H](CN)[C@H](O)[C@H](O)[C@H]3N)O[C@@H]2CO)[C@@H](N)[C@@H](O)[C@@H]1O
**Result** 1.0

**Query** Test call, this molecule: CC1=C(C(=O)O)N2C(=O)[C@@H](NC(=O)[C@H](N)c3ccccc3)[C@H]2SC1
**Result** 1.0

**Query** Test call, this molecule: CC(=O)SCC(CC(=O)c1ccc(C)cc1)C(=O)O (stereo not drawn)
**Result** 0.0

**Query** Test call, this molecule: Fc1ccc(C(c2ccc(F)cc2)N2CCNCC2)cc1
**Result** 0.0

**Query** Test call, this molecule: Nc1cc(C(F)(F)F)ccc1S
**Result** 1.0

**Query** Test call, this molecule: O=C(CCN1CCN(CCO)CC1)N1c2ccccc2Sc2ccc(C(F)(F)F)cc21
**Result** 0.0

**Query** Test call, this molecule: Oc1cccc(O)c1O
**Result** 0.0

**Query** Test call, this molecule: Oc1ccc(Cl)cc1Sc1cc(Cl)ccc1O
**Result** 1.0

**Query** Test call, this molecule: O=C(NCN1CCOCC1)c1cnccn1
**Result** 0.0

**Query** Test call, this molecule: OCCN1C[C@H](O)[C@@H](O)[C@H](O)[C@H]1CO
**Result** 0.0

**Query** Test call, this molecule: CC(C(=O)O)c1ccc(/C=C2\CCCCC2=O)cc1 (stereo not drawn)
**Result** 0.0

**Query** Test call, this molecule: O=c1[nH]cnc2[nH]ncc12
**Result** 0.0

**Query** Test call, this molecule: CCCC(=O)O[C@]1(C(=O)COC(=O)CC)CC[C@H]2[C@@H]3CCC4=CC(=O)CC[C@]4(C)[C@H]3[C@@H](O)C[C@@]21C
**Result** 0.0

**Query** Test call, this molecule: CC(C)(C)c1nnc(NS(=O)(=O)c2ccccc2)s1
**Result** 0.0

**Query** Test call, this molecule: CC(C)=CCOc1ccc(/C=C/C(=O)c2ccc(OCC=C(C)C)cc2OCC(=O)O)cc1
**Result** 0.0
